System: EKVX
ASSAY_DETAILS: NCI tumour cell line growth inhibition, 48 h
Calls of active or inactive are those of the source. Rule as the data show it: active = GI50 up to about 1.1 µM and inactive = higher.
VALUE_KIND: GI50

Worked set:
| MOLECULE | GI50 |
| --- | --- |
| C(=C1/CCCCC([n+]2ccccc2)=N1)/c1ccccc1 | > 100 µM (inactive) |
| O=C1CCSCCC(=O)Nc2ccccc2N1 | > 100 µM (inactive) |
| CC1=CC(=O)CC(C)(C)C1/C=C/C(C)=C/C=C/C(C)=C/C=C/C=C(C)/C=C/C=C(C)/C=C/C1=C(C)CC(O)CC1(C)C (centres undefined) | 57.3 µM (inactive) |
| Cc1ccc2cccc(OC(=O)c3cc4c(cc3Cl)Sc3nccn3S4(=O)=O)c2n1 | 16.7 µM (inactive) |

I have 2 molecules here; please give me GI50 for each one.
1. S=C1CC(c2ccc(Cl)cc2)Sc2ccccc2N1 (centres undefined)
2. O=C(Cn1ccc(=O)[nH]c1=O)Nc1ccc(C(=O)O)c(O)c1

[A]
1. 34 µM (inactive)
2. > 100 µM (inactive)

// for each molecule below, give its GI50
1. CCCCCCCCCCCCCCCCP(=O)(O)OCC(N)C(=O)O (centres undefined)
2. N#Cc1cccc(C2C(=O)c3ccc(C(=O)c4ccc5c(c4)C(=O)N(c4ccc(Oc6ccc(N7C(=O)c8ccc(C(=O)c9ccc%10c(c9)C(=O)N(c9cccc(C#N)c9)C%10=O)cc8C7=O)cc6)cc4)C5=O)cc3C2=O)c1 (centres undefined)

[A]
1. > 100 µM (inactive)
2. > 100 µM (inactive)

[Q] Please tell me: GI50 of CCOCc1cc(=O)c2c(OC)cc3c(c2o1)CCC(C)(C)O3 , system EKVX?
[A] > 100 µM (inactive)

* * *

Test system: HCT-15
For each record, write down the corresponding GI50.

| COMPOUND | GI50 |
| --- | --- |
| CC1CC(=O)c2c(ccc3c2C(=O)c2cccc(O)c2C3=O)C1 (stereo not given) | 9.14 µM |

Each compound below has a reported value. Please supply its GI50.
1. COC(=O)C1CC(c2ccc(Cl)cc2)=NO1 (stereo not given)
2. N#CCCN(CCC#N)c1ccc(/C=C2\N=C(c3cc([N+](=O)[O-])ccc3Cl)N(S(=O)(=O)c3ccccc3)C2=O)cc1
3. O=S1(=O)CCN(Cc2ccccc2)/C1=N\S(=O)(=O)c1ccc(Cl)cc1
4. O=C(Nc1ccc(F)cc1)C(=O)C(C1OC(=O)c2ccccc21)[N+](=O)[O-] (stereo not given)

[A]
1: > 100 µM; 2: > 100 µM; 3: 20.3 µM; 4: > 100 µM

Quick one: give me GI50 for each item below, same order please.
1. Clc1ccc2c(Cl)ncnc2c1
2. CC[C@@]1(O)C(=O)OCc2c1cc1n(c2=O)Cc2c-1nc1ccccc1c2/C=N\NC(=O)C(N)Cc1c[nH]cn1 (stereo not given in full)
3. NC1(P(=O)(O)O)CCCCC1
4. Cc1cn(C2CCC(CO)(CF)O2)c(=O)[nH]c1=O (stereo not given)
5. COc1ccc(C2c3cc4c(cc3OC(NNC(N)=O)C2C)OCO4)cc1 (stereo not given)

[A]
1. > 100 µM
2. 1.34 µM
3. > 100 µM
4. > 100 µM
5. 3.94 µM

The reported measurements were obtained from ChEMBL document CHEMBL1201862.
